Molecular target: recombinant PRL-1 (Homo sapiens)
Construct: 6xHis (N, cleaved yes); made in house; host or cells: E. coli One Shot BL21 Star
Sequence (Q93096 whole entry): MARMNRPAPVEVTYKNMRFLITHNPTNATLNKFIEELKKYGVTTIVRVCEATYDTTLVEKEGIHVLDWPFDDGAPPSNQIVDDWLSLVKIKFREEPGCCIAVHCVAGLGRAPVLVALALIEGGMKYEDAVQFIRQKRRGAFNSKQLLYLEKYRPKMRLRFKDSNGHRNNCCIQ
Assay: In vitro phosphatase assay (DiFMUP hydrolysis), PRL-1
Type: biochemical
Settings: 2.5 µM protein, DiFMUP at KM; read-out: Calculated IC50, PRL-1 phosphatase activity
measurement-kind: IC50 (µM)
Kindly provide the numeric value in µM only, without the unit symbol.

**Query** Which IC50 reading was recorded for the compound COCCn1c2c([n+](Cc3cnccn3)c1C)C(=O)c1ccccc1C2=O [YM155, reference compound] ?
**Result** 0.3

**Query** Which IC50 reading was recorded for the compound COc1cc(C(=O)O)ccc1NC(=O)[C@@H]1N[C@@H](CC(C)(C)C)[C@](C#N)(c2ccc(Cl)cc2F)[C@H]1c1cccc(Cl)c1F [Idasanutlin, reference compound] ?
**Result** 20

**Query** Which IC50 reading was recorded for the compound CC1=NN(c2ccc(C)c(C)c2)C(=O)/C1=N\Nc1cccc(-c2cccc(C(=O)O)c2)c1O [Eltromobag, reference compound] ?
**Result** 56

**Query** Which IC50 reading was recorded for the compound Oc1c(Cl)cc(Cl)cc1Sc1cc(Cl)cc(Cl)c1O [Bithionol, reference compound] ?
**Result** 79

**Query** Which IC50 reading was recorded for the compound CC(=O)c1cc2c(o1)C(=O)c1ccccc1C2=O [Napabucasin, reference compound] ?
**Result** 0.4

**Query** Which IC50 reading was recorded for the compound Oc1c(Cl)cc(Cl)c(Cl)c1Cc1c(O)c(Cl)cc(Cl)c1Cl [Hexachlorophene, reference compound] ?
**Result** 31

**Query** Which IC50 reading was recorded for the compound CCCCCCCCCCCC1=C(O)C(=O)C=C(O)C1=O [Embelin, reference compound] ?
**Result** 114
